Each recorded value in this set is attributed to patent US6984640B1.

# System: Neospora caninum
# protocol-notes: Screening against Neospora caninum cell cultures in vitro (VERO or ED host cells)
# Format: cell-based
# Design: key: 0 = no effect monolayer completely destroyed; 1 = weak effect monolayer partly destroyed, parasite clumps can be seen; 2 = full effect monolayer intact, no tachyzoites observable; T = cytotoxic cells are dead, lysed
# setup-conditions: Dose 10^−6 g/ml; microscopic evaluation 4 days after treatment
value-kind: Evaluation of effect against Neospora caninum
Please state the value as a number alone, without comment.

Q: Report Evaluation of effect against Neospora caninum, nothing else, for this molecule: CC1CCC2C(C)C(NCc3cc(C(F)(F)F)cc(C(F)(F)F)c3)OC3OC4(C)CCC1C32OO4 (stereo not shown) [Example 23]
Result: 0

Q: Give reported Evaluation of effect against Neospora caninum value for CC(NC1OC2OC3(C)CCC4C(C)CCC(C1C)C24OO3)c1ccccc1 (stereo not shown) [Example 30]
Result: 0

Q: Supply Evaluation of effect against Neospora caninum value. Item: CC1CCC2C(C)C(c3ccccc3)OC3OC4(C)CCC1C32OO4 (stereo not shown) [Example 2]
Result: 1

Q: Give reported Evaluation of effect against Neospora caninum value for CC1CCC2C(C)C(NCc3ccccc3)OC3OC4(C)CCC1C32OO4 (stereo not shown) [Example 21]
Result: 0

Q: For CCCNC1OC2OC3(C)CCC4C(C)CCC(C1C)C24OO3 (stereo not shown) [Example 24] , write its Evaluation of effect against Neospora caninum.
Result: 0

Q: Using the record for CC1CCC2C(C)C(Nc3ccc(-c4ccccc4)cc3)OC3OC4(C)CCC1C32OO4 (stereo not shown) [Example 20] , state its measured Evaluation of effect against Neospora caninum.
Result: 1

Q: Supply recorded Evaluation of effect against Neospora caninum for CC1CCC2C(C)C(Nc3ccccc3)OC3OC4(C)CCC1C32OO4 (stereo not shown) [Example 15] here.
Result: 1

Q: Look up and report measured Evaluation of effect against Neospora caninum for this entry: CC1CCC2C(C)C(Nc3ccc(I)cc3)OC3OC4(C)CCC1C32OO4 (stereo not shown) [Example 19]
Result: 0

Q: Identify measured Evaluation of effect against Neospora caninum corresponding to CC1CCC2C(C)C(N3CCOCC3)OC3OC4(C)CCC1C32OO4 (stereo not shown) [Example 25]
Result: 1

Q: # return recorded Evaluation of effect against Neospora caninum for entry CC1CCC2C(C)C(Nc3ccc(Br)cc3)OC3OC4(C)CCC1C32OO4 (stereo not shown) [Example 18]
Result: 1

---

# Test system: Eimeria tenella
# protocol-notes: Screening against Eimeria tenella cell cultures in vitro (chick kidney cells)
# Type: cell-based
# Set-up: key: 3 = very active no intact parasites/well; 2 = active 1-6 parasites per well; 1 = weakly active up to 1 intact schizont/optical field of vision; 0 = inactive >1 intact schizont/optical field of vision; T = cytotoxic host cells are dead
# setup-conditions: Dose 10^−5 g/ml; day 5 post infection
value-kind: Effectiveness rating against Eimeria tenella

// solved cases for Effectiveness rating against Eimeria tenella follow
compound	endpoint-result
CC1CCC2C(C)C(NCc3cc(C(F)(F)F)cc(C(F)(F)F)c3)OC3OC4(C)CCC1C32OO4 (centres unmarked) [Example 23]	T
CC1CCC2[C@@H](C)C(=O)OC3O[C@]4(C)CCC1C32OO4 (some centres unmarked) [Artemisinin, artemisinin]	2 (2 = active 1-6 parasites per well)
CC1CCC2C(C)C(Nc3ccc(-c4ccccc4)cc3)OC3OC4(C)CCC1C32OO4 (centres unmarked) [Example 20]	T
CC1CCC2C(C)C(c3ccccc3)OC3OC4(C)CCC1C32OO4 (centres unmarked) [Example 2]	2 (2 = active 1-6 parasites per well)

Now look at this entry.
Q: Give the measured Effectiveness rating against Eimeria tenella for CC1CCC2C(C)C(Nc3ccccc3)OC3OC4(C)CCC1C32OO4 (centres unmarked) [Example 15]
Result: 2 (2 = active 1-6 parasites per well)

---

# Test system: Plasmodium falciparum D6 strain (chloroquine sensitive)
# protocol-notes: In vitro screening against Plasmodium falciparum, 3H-hypoxanthine incorporation, D6 strain
# Format: cell-based
# setup-conditions: 66 hours incubation
Category scheme (In vitro activity: IC90): one = under 1 ng/mL, two = from 1 ng/mL up to 2 ng/mL, three = 2 ng/mL and over

Examples with answers:
compound	system-under-test	label-class
CC1CCC2C(C)C(Nc3ccccc3)OC3OC4(C)CCC1C32OO4 (stereo not shown) [Example 15]	Plasmodium falciparum D6 strain (chloroquine sensitive)	one
COc1cc(OC)c(C2OC3OC4(C)CCC5C(C)CCC(C2C)C35OO4)c(OC)c1 (mixture of isomers) [Example 12]	Plasmodium falciparum D6 strain (chloroquine sensitive)	two
COc1ccc(C2O[C@@H]3O[C@@]4(C)CC[C@H]5[C@H](C)CC[C@@H]([C@H]2C)[C@@]35OO4)c(OC)c1 (stereo partly shown) [Example 4]	Plasmodium falciparum D6 strain (chloroquine sensitive)	three
CC1CCC2C(C)C(Nc3ccc(I)cc3)OC3OC4(C)CCC1C32OO4 (stereo not shown) [Example 19]	Plasmodium falciparum D6 strain (chloroquine sensitive)	one
COc1cc(OC)c(C2OC3OC4(C)CCC5C(C)CCC(C2C)C35OO4)c(OC)c1 (stereo not shown) [Example 44]	Plasmodium falciparum D6 strain (chloroquine sensitive)	two

Q: Quick check: band for CC1CCC2C(C)C(c3ccc(Br)cc3)OC3OC4(C)CCC1C32OO4 (stereo not shown) [Example 38]
Result: three

Q: Please classify: CC1CCC2C(C)C(Nc3ccc(Br)cc3)OC3OC4(C)CCC1C32OO4 (stereo not shown) [Example 18]
Result: one

Q: Class label required: CC1CCC2C(C)C(Nc3ccc(-c4ccccc4)cc3)OC3OC4(C)CCC1C32OO4 (stereo not shown) [Example 20]
Result: three

Q: Category of CC1CCC2C(C)C(N3CCOCC3)OC3OC4(C)CCC1C32OO4 (stereo not shown) [Example 25] :
Result: one

---

# Tested on: Plasmodium falciparum W2 strain (chloroquine resistant)
# protocol-notes: In vitro screening against Plasmodium falciparum, 3H-hypoxanthine incorporation, W2 strain
# Type: cell-based
# setup-conditions: 66 hours incubation
value-kind: In vitro activity: IC50 (ng/mL)
Expressed in ng/mL, but write only the number.

See these solved cases before continuing.
molecule	unit-symbol	endpoint-result
CC1CCC2C(C)C(Nc3ccc(I)cc3)OC3OC4(C)CCC1C32OO4 (stereo not drawn)	ng/mL	0.33
CC1CCC2C(C)C(Nc3ccccc3)OC3OC4(C)CCC1C32OO4 (stereo not drawn)	ng/mL	0.66

Q: Tell me measured In vitro activity: IC50 for COc1cc(OC)c(C2OC3OC4(C)CCC5C(C)CCC(C2C)C35OO4)c(OC)c1 (stereo not drawn) [Example 44] please.
Result: 0.3318

Q: Look up and report measured In vitro activity: IC50 for this entry: CC1CCC2C(C)C(Nc3ccc(F)cc3)OC3OC4(C)CCC1C32OO4 (stereo not drawn)
Result: 0.64

Q: Retrieve In vitro activity: IC50 measured for CC1CCC2C(C)C(F)OC3OC4(C)CCC1C32OO4 (stereo not drawn) and print it.
Result: 0.69

Q: Input CC1CCC2C(C)C(c3ccc(Br)cc3)OC3OC4(C)CCC1C32OO4 (stereo not drawn) , output reported In vitro activity: IC50.
Result: 1.23

Q: Fill in reported In vitro activity: IC50 for this entry: CC1CCC2C(C)C(Nc3ccc(Br)cc3)OC3OC4(C)CCC1C32OO4 (stereo not drawn)
Result: 0.23

Q: Item CC1CCC2C(C)C(N3CCOCC3)OC3OC4(C)CCC1C32OO4 (stereo not drawn) : provide In vitro activity: IC50
Result: 0.11

Q: Given the molecule COc1ccc(C2O[C@@H]3O[C@@]4(C)CC[C@H]5[C@H](C)CC[C@@H]([C@H]2C)[C@@]35OO4)c(OC)c1 (stereo partly drawn) , write its reported In vitro activity: IC50.
Result: 0.84

---

# Tested on: Eimeria tenella
# protocol-notes: Screening against Eimeria tenella cell cultures in vitro (chick kidney cells)
# Assay type: cell-based
# setup-conditions: Dose 10^−6 g/ml; day 5 post infection
value-kind: Effectiveness rating against Eimeria tenella

compound	endpoint-result
CC(NC1OC2OC3(C)CCC4C(C)CCC(C1C)C24OO3)c1ccccc1 (centres unmarked)	2 (2 = active 1-6 parasites per well)
CC1CCC2C(C)C(Nc3ccc(I)cc3)OC3OC4(C)CCC1C32OO4 (centres unmarked)	T

---

# Tested on: Eimeria tenella
# protocol-notes: Screening against Eimeria tenella cell cultures in vitro (chick kidney cells)
# Format: cell-based
# Set-up: key: 3 = very active no intact parasites/well; 2 = active 1-6 parasites per well; 1 = weakly active up to 1 intact schizont/optical field of vision; 0 = inactive >1 intact schizont/optical field of vision; T = cytotoxic host cells are dead
# setup-conditions: Dose 10^−6 g/ml; day 5 post infection
value-kind: Effectiveness rating against Eimeria tenella

compound	endpoint-result
CC1CCC2C(C)C(Nc3ccc(Br)cc3)OC3OC4(C)CCC1C32OO4 (stereo not shown)	T
CC1CCC2C(C)C(Nc3ccccc3)OC3OC4(C)CCC1C32OO4 (stereo not shown)	2 (2 = active 1-6 parasites per well)
CC1CCC2C(C)C(c3ccccc3)OC3OC4(C)CCC1C32OO4 (stereo not shown)	2 (2 = active 1-6 parasites per well)
